Molecular target: p52p52 homodimer (Homo sapiens, UniProt Q00653 4-332)
Sequence: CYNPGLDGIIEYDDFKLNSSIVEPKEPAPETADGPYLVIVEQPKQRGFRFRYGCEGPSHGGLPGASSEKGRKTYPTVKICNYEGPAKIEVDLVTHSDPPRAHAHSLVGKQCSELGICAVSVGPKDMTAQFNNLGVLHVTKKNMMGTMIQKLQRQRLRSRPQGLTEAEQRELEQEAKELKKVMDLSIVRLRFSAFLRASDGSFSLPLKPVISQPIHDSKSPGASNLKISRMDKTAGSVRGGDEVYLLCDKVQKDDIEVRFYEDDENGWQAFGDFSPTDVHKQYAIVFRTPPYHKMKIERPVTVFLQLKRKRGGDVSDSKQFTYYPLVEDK
Assay: protein binding microarray; high values mean tight binding
Details: dsDNA, one strand shown
Friendly reminder: binding signal below 0.1 z-score is class 1, at or above is class 0.

[ask] Record "CGGATTGCCCC" : is its binding signal strictly below 0.1 z-score?
[reply] class 0

[ask] Record "AAGGGCGTCCT" : is its binding signal strictly below 0.1 z-score?
[reply] class 1

[ask] Record "GGAGGCGCCCC" : is its binding signal strictly below 0.1 z-score?
[reply] class 1

[ask] Record "CAGGTCATCCT" : is its binding signal strictly below 0.1 z-score?
[reply] class 1

[ask] Record "AAGAAGGTCCT" : is its binding signal strictly below 0.1 z-score?
[reply] class 1

[ask] Record "AAGGGAATCCC" : is its binding signal strictly below 0.1 z-score?
[reply] class 0

[ask] Record "GAAAAGTCCCT" : is its binding signal strictly below 0.1 z-score?
[reply] class 0

[ask] Record "GGATGAACCCT" : is its binding signal strictly below 0.1 z-score?
[reply] class 1

[ask] Record "AGATTTATCCC" : is its binding signal strictly below 0.1 z-score?
[reply] class 1

[ask] Record "GAGAATACCCC" : is its binding signal strictly below 0.1 z-score?
[reply] class 0

[ask] Record "CGAAGCTTCCC" : is its binding signal strictly below 0.1 z-score?
[reply] class 1

[ask] Record "GAGATATCCCC" : is its binding signal strictly below 0.1 z-score?
[reply] class 0

[ask] Record "CGAATTCTCCT" : is its binding signal strictly below 0.1 z-score?
[reply] class 1

[ask] Record "GAATTCCTCCC" : is its binding signal strictly below 0.1 z-score?
[reply] class 1

[ask] Record "AAGTGTGTCCT" : is its binding signal strictly below 0.1 z-score?
[reply] class 1

[ask] Record "AGAGACACCCC" : is its binding signal strictly below 0.1 z-score?
[reply] class 1

[ask] Record "AGATTACTCCT" : is its binding signal strictly below 0.1 z-score?
[reply] class 1

[ask] Record "CAAAAGACCCT" : is its binding signal strictly below 0.1 z-score?
[reply] class 1

[ask] Record "CGAGTTATCCT" : is its binding signal strictly below 0.1 z-score?
[reply] class 1

[ask] Record "GAAGGGACCCC" : is its binding signal strictly below 0.1 z-score?
[reply] class 0

[ask] Record "AAGAGAGCCCC" : is its binding signal strictly below 0.1 z-score?
[reply] class 0
